// reported Percent Effect per item
target: Chromo domain-containing protein 1 (Saccharomyces cerevisiae (strain ATCC 204508 / S288c) (Baker's yeast)) (UniProt P32657); assay: ScCHD-1 Enzyme Inhibition Assay; type: functional; parameters: scale not given: in the data most compounds retested in dose-response had high values; conditions: 30 µM
Sequence (P32657 whole entry, the tested form may be a part): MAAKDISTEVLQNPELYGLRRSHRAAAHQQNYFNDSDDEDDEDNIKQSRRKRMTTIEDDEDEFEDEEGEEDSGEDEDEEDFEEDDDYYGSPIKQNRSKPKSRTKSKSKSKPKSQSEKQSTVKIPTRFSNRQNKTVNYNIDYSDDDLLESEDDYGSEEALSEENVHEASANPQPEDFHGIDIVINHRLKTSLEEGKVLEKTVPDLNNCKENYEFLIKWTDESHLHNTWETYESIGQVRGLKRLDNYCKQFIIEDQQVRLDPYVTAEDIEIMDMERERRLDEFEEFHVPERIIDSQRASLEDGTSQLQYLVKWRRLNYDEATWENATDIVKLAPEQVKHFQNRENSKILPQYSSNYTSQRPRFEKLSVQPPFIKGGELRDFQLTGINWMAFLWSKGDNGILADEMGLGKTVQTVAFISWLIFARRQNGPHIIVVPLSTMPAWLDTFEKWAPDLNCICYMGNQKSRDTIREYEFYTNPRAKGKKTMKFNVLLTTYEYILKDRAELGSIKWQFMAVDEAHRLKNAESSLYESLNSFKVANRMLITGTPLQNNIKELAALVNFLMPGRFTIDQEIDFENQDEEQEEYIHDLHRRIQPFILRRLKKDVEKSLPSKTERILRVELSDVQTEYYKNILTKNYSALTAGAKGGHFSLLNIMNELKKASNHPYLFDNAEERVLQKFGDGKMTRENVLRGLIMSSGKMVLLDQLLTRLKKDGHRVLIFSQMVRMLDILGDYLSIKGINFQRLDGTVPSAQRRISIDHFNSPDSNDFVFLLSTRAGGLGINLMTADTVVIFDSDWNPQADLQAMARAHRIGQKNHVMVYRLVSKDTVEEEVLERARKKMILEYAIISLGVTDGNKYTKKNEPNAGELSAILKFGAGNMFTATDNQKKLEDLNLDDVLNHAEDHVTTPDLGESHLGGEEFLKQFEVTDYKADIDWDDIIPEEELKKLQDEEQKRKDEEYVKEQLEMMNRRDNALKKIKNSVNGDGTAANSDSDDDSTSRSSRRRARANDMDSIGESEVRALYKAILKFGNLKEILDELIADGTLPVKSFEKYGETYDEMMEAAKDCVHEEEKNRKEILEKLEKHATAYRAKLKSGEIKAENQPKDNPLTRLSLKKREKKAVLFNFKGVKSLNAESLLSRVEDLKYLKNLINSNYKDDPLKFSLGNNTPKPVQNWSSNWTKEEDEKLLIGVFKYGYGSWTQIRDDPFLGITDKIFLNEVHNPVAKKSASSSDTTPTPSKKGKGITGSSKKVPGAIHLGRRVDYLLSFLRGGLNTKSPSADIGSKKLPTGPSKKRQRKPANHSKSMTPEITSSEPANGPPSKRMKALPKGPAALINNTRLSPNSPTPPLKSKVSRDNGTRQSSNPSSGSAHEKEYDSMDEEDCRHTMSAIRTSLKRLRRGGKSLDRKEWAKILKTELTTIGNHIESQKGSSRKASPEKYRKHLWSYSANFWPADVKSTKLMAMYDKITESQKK
Report field: quantity (unit follows the number).

Solved cases (3 shown):
>>> df
                                   compound  reported_measurement
0  COc1ccc(CN(C)C(=O)CCc2c(C)nc(C)[nH]c2=O)cc1OC                -3.31%
1  Cc1nccn1CCC1CCCCN1C(=O)c1ccc2[nH]nnc2c1 (stereo not drawn)                -6.44%
2  CN(Cc1nnc2n1CCC2)C(=O)NCCc1ccc2c(c1)OCO2                -6.24%

Form field: reported Percent Effect of O=C(Cn1ccnc1)N1C[C@@H]2CC[C@H](Oc3ccccc3Cl)[C@@H]2C1
1.94%

Form field: reported Percent Effect of O=C(CN1CC(n2cccn2)C1)NCCc1c[nH]c2ccccc12
7.61%

Form field: reported Percent Effect of Fc1cccc(CN2CCC(c3n[nH]c4ncccc34)CC2)c1F
-10.6%

Form field: reported Percent Effect of Cc1nc(C2CCCN2C(=O)CNS(C)(=O)=O)no1 (stereo not drawn)
-12.8%

Form field: reported Percent Effect of CN1CC(=O)N(c2cccnc2)CC12CCN(C(=O)C1CCCCC1)C2 (stereo not drawn)
-2.49%

###

target: Arginase-2, mitochondrial (Homo sapiens) (UniProt P78540); assay: in vitro enzyme assay to detect the production of urea directly proportional to the activity of Arginase II; assay type: functional; design: scale not given: in the data most compounds retested in dose-response had high values; conditions: 33.3 µM
Sequence (P78540 whole entry): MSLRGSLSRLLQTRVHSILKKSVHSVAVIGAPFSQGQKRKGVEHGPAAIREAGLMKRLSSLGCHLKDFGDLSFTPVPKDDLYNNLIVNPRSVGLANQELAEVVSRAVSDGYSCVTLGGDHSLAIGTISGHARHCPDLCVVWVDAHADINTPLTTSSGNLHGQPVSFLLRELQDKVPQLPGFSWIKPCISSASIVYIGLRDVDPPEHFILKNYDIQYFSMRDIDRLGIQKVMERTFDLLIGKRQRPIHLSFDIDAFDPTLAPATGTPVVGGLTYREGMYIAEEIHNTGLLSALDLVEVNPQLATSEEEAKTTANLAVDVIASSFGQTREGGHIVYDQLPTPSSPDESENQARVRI
MEASURE: Percent Effect (%)
Give just the number in %; leave the unit off.

Solved cases (3 shown):
>>> df
                                   molecule  reported_measurement
0         CCNC(=O)c1nc2c(s1)CCCN2S(C)(=O)=O                 -56.8
1  CC(=O)c1cn(CC(=O)NC(C(=O)O)C(C)C)c2ccccc12 (configuration not stated)                 -1.04
2  CNC(=O)c1cc2c(nc1N(C)C)CCN(S(=O)(=O)C1CC1)CC2                  9.68

Next up:
Form field: reported Percent Effect of O=C(c1cccnc1-n1cncn1)N1CCc2ccccc2C1
1.91

###

biological target: AMP-activated protein kinase, AMPK (Homo sapiens) (UniProt P54646+O43741+P54619+Q9UGJ0+Q9Y478+Q13131+Q9UGI9); test: AMP-dependent Kinase enzyme assay. An in vitro enzyme assay that detects ADP turnover that is directly proportional to AMPK activity. This uses naive AMPK that is activated during the assay with MK-8722; format: functional; set-up: scale not given: direction of the effect not stated beside the values; details: 30 µM
MEASURE: Percent Effect
Report field: quantity (unit follows the number).

Solved cases (10 shown):
>>> print(df.to_string())
                                   compound  reported_measurement
0    CN1CCN(Cc2cn3c(n2)CN(Cc2cccnc2)CC3)CC1                 12.3%
1  CCOC(=O)CCNC(=O)N1CCN(c2nc3ccccc3n2C)CC1                 1.91%
2  COc1nccc(N2CCN(Cc3ccc(C)cc3)C(=O)C2)c1C#N                -4.99%
3     CC(C)c1nn(C)c(N2CCOCC2)c1CN[C@H](C)CO                -9.46%
4  Cc1nc(C)n(CC2CCCCN2CC(=O)Nc2nncs2)n1 (stereo not drawn)                -1.04%
5  COCC1CN(Cc2cc(C)on2)Cc2cn(C)nc21 (stereo not drawn)                 1.48%
6  O=C(NCc1ccc(-n2cncn2)nc1)c1ccc2c(c1)CCO2                -9.05%
7  COCCC(=O)N1CCC2(COCc3c(C)nc(NCC4CC4)nc32)C1 (stereo not drawn)                 11.3%
8  CC(=O)NCC(=O)N1C[C@H](OCc2cccnc2)[C@H]2COC[C@H]21                 1.91%
9  O=C(NCCNC(=O)N1CCC(c2ccccc2)C1)C1CC1 (stereo not drawn)                -5.02%

Form field: reported Percent Effect of CC(C)Oc1ccc(CSc2nnc(CN3CCCC3=O)o2)cc1
-6.5%

Form field: reported Percent Effect of CC1=N[C@@]2(CC[C@@H]3CN(S(=O)(=O)CC(C)C)C[C@@H]32)C(=O)N1CC(C)C
5.56%

Form field: reported Percent Effect of Cc1nnc(NCc2cccnc2N(C)C)c(C#N)c1C
-22.1%

Form field: reported Percent Effect of CC(=O)NCC(=O)N1CCC2(CC1)CN(c1cccnc1)C(=O)CO2
-3.23%

###

target: Ubiquitin-activating enzyme e1, putative (Leishmania donovani (strain BPK282A1)); experiment: Leishmania donovani Ubiquitin Activating Enzyme (LdE1); assay type: functional; parameters: scale not given: direction of the effect not stated beside the values; conditions: 30 µM
Results with a measured potency or affinity are listed apart.
// reported Percent Effect per item
Report field: quantity (unit follows the number).

Solved cases (3 shown):
>>> df
                                   molecule                            assayed_system  reported_measurement
0  CC1CCCN(Cc2c(C3CCOCC3)[nH]c3ncccc23)C1 (stereo unspecified)  Ubiquitin-activating enzyme e1, putative (Leishmania donovani (strain BPK282A1))                 25.7%
1  Cn1cccc1C(=O)N1CC[C@H]2C[C@@H](c3ccncn3)O[C@@H]2C1  Ubiquitin-activating enzyme e1, putative (Leishmania donovani (strain BPK282A1))                 13.5%
2  CN(C)c1cc(C(=O)NCCc2nnc(-c3ccco3)[nH]2)ccn1  Ubiquitin-activating enzyme e1, putative (Leishmania donovani (strain BPK282A1))                 2.63%

Form field: reported Percent Effect of CC(=O)Nc1ccc(-n2ccc3nc(N4CCCC4)ncc3c2=O)cc1
-9.33%

Form field: reported Percent Effect of COCC1c2nnn(CC3CC3)c2CCN1C(=O)Cc1cccs1 (stereo unspecified)
2.7%

Form field: reported Percent Effect of Cc1ccc(C(=O)CCC(=O)N2CCC(c3nncn3C)CC2)cc1
15.6%

Form field: reported Percent Effect of Cc1nc(C2CCCN2CC(=O)N(Cc2ccsc2)C2CC2)no1 (stereo unspecified)
-8.11%

Form field: reported Percent Effect of CCc1nc(NCCCOC)c2c(n1)c(C)nn2C
17.3%

###

// reported Percent Effect per item
target: Protein translocase subunit SecA (Escherichia coli (strain K12)) (UniProt P10408); test: Assay to Identify E. coli SecA ATPase Inhibitors; type: functional; parameters: scale not given: direction of the effect not stated beside the values; details: 30 µM
Sequence (P10408 whole entry): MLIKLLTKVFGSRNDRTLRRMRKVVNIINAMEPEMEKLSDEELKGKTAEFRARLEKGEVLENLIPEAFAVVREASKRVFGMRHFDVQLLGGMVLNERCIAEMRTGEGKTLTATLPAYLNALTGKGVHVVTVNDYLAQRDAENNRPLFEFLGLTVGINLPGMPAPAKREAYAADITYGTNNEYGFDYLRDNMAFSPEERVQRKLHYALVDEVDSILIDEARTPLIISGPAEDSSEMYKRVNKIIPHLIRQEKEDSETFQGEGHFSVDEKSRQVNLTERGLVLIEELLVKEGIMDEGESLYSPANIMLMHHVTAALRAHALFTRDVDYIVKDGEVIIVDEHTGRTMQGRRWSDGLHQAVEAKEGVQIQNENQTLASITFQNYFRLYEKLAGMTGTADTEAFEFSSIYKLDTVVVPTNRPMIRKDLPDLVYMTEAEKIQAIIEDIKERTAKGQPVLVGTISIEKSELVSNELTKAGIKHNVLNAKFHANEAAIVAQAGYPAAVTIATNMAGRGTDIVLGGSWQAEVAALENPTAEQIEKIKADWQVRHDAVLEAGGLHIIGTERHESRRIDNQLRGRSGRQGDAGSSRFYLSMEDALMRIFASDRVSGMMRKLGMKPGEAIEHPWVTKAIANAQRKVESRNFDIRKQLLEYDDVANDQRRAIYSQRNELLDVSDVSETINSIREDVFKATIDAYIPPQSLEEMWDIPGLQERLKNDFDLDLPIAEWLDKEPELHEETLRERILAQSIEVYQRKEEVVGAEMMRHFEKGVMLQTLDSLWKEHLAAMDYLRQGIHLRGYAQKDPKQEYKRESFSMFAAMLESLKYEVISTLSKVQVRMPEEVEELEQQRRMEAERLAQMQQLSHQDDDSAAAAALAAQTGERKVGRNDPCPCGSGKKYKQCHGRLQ
Results with a measured potency or affinity are listed apart.
Give just the number in %; leave the unit off.

>>> print(df.to_string())
                                   compound  reported_measurement
0  Cc1ccc(CC(=O)N2CCOC(c3nc(C)n[nH]3)C2)cn1 (stereo not drawn)                 -3.84
1  CCN(CC)C(CNS(=O)(=O)c1ccc(C(=O)NC)cc1)c1ccco1 (stereo not drawn)                 -3.83
2  CNC(=O)[C@@]12CCO[C@@H]1CCN(S(=O)(=O)c1cccc(C)c1)C2                 -2.33
3  CN(C)C(=O)c1ccc(CNC(=O)NCCN(C)C2CCCC2)cc1                -0.464
4  Cn1cc(CN2C[C@@H]3COC[C@@H](C(=O)N4CCCCO4)[C@@H]3C2)cn1                 -2.29
5     CN(CCOc1cccc(CNC(=O)C2CC2)c1)C1CCOCC1                 -3.16
6  c1coc(-c2noc(CN3CCC(c4ccn[nH]4)CC3)n2)c1                 -1.24
7          COCCN1CCC2(CCN(Cc3nccs3)CC2)C1=O                 -1.23

// fetch Protein translocase subunit SecA (Escherichia coli (strain K12)) (UniProt P10408) Percent Effect for O=C1NCCN1C1CCCN(Cc2nnc(-c3ccc(F)cc3)o2)C1 (stereo not drawn)
-1.01

// fetch Protein translocase subunit SecA (Escherichia coli (strain K12)) (UniProt P10408) Percent Effect for COCCCN1CCCN(C(C)C(=O)Nc2ccnn2C(C)C)CC1 (stereo not drawn)
0.586

// fetch Protein translocase subunit SecA (Escherichia coli (strain K12)) (UniProt P10408) Percent Effect for O=C(CCc1ccccc1)C1CCCN(C(=O)c2ncc(F)cc2F)C1 (stereo not drawn)
-4.95

// fetch Protein translocase subunit SecA (Escherichia coli (strain K12)) (UniProt P10408) Percent Effect for Cc1ccc2c(c1)C1(CC2)CCN(c2nncs2)CC1
-0.497

// fetch Protein translocase subunit SecA (Escherichia coli (strain K12)) (UniProt P10408) Percent Effect for CC(=O)N1CCCC1c1ccc(-c2c(C)noc2C)cn1 (stereo not drawn)
0.953

// fetch Protein translocase subunit SecA (Escherichia coli (strain K12)) (UniProt P10408) Percent Effect for Cc1nn(C)c(C)c1C1CCCN1CCCc1nc2ccccc2o1 (stereo not drawn)
-7.27

// fetch Protein translocase subunit SecA (Escherichia coli (strain K12)) (UniProt P10408) Percent Effect for O=C(NC1CC1)[C@@H]1CCO[C@@H]2CCN(Cc3ccsc3)C[C@H]21
-3.17

// fetch Protein translocase subunit SecA (Escherichia coli (strain K12)) (UniProt P10408) Percent Effect for CC(C)C(=O)NCc1cccc(N2CCCCC2=O)c1
-6.2

// fetch Protein translocase subunit SecA (Escherichia coli (strain K12)) (UniProt P10408) Percent Effect for Cc1nn(C)c(C)c1C(=O)N1CCOCC1CC(=O)c1ccco1 (stereo not drawn)
-2.08

// fetch Protein translocase subunit SecA (Escherichia coli (strain K12)) (UniProt P10408) Percent Effect for Cc1cc(C)n(CC(=O)N2CCC(NS(=O)(=O)c3ccccc3)CC2)n1
-0.375

// fetch Protein translocase subunit SecA (Escherichia coli (strain K12)) (UniProt P10408) Percent Effect for O=S1(=O)c2ccccc2C2(CCN(Cc3ccccc3)C2)N1CC1CC1 (stereo not drawn)
-1.03

// fetch Protein translocase subunit SecA (Escherichia coli (strain K12)) (UniProt P10408) Percent Effect for O=C(O)C1(Cc2ccccc2Cl)CCN(c2ncccc2F)CC1
-0.132

// fetch Protein translocase subunit SecA (Escherichia coli (strain K12)) (UniProt P10408) Percent Effect for O=C(NCCc1cccc(O)c1)NC1CCN(c2ccccc2)C1=O (stereo not drawn)
-7.43

// fetch Protein translocase subunit SecA (Escherichia coli (strain K12)) (UniProt P10408) Percent Effect for CN(C)[C@@H]1CCN(C(=O)c2ccsc2)[C@H]1Cc1cnn(C)c1
-3.13

// fetch Protein translocase subunit SecA (Escherichia coli (strain K12)) (UniProt P10408) Percent Effect for CCOc1ccc(NC(=O)NCc2csc(NC)n2)cc1C
-1.88

// fetch Protein translocase subunit SecA (Escherichia coli (strain K12)) (UniProt P10408) Percent Effect for CC(C)c1noc(C(C)N2CCN(Cc3ccsc3)CC2)n1 (stereo not drawn)
-4.95
